Cited source for all entries: ChEMBL document CHEMBL3885861

Species: Rattus norvegicus
Assay: Open TG-GATES - Regimen: Daily Repeat
Format: toxicity, organism-based, Sprague-Dawley
Design: regimen Daily Repeat, gender Male, age 6 weeks
Settings: in vivo, po, 100 mg/kg, 72 h, tissue Blood, route gavage, dose level Low, time 3 day
Catalogue of WBC readings, one per entry.
Hi! Could you send only the number? It should be in x10_2/uL, unit omitted.

• COC(=O)C1=C(C)NC(C)=C(C(=O)OC)C1c1ccccc1[N+](=O)[O-] = 96
• CCOc1ccc(NC(C)=O)cc1 = 101.2
• O=C(OC[C@H]1O[C@@H](OC(=O)c2cc(O)c(O)c(OC(=O)c3cc(O)c(O)c(O)c3)c2)[C@H](OC(=O)c2cc(O)c(O)c(OC(=O)c3cc(O)c(O)c(O)c3)c2)[C@@H](OC(=O)c2cc(O)c(O)c(OC(=O)c3cc(O)c(O)c(O)c3)c2)[C@@H]1OC(=O)c1cc(O)c(O)c(OC(=O)c2cc(O)c(O)c(O)c2)c1)c1cc(O)c(O)c(OC(=O)c2cc(O)c(O)c(O)c2)c1 = 90.6
• CN/C(=N/CCSCc1nc[nH]c1C)NC#N = 97.9

// returns reported WBC for input Cc1nnc2n1-c1ccc(Cl)cc1C(c1ccccc1Cl)=NC2
108.6

// returns reported WBC for input CNC(=C[N+](=O)[O-])NCCSCc1ccc(CN(C)C)o1
75.1
